# ASSAYED SYSTEM: Neurogenic locus notch homolog protein 3 (Homo sapiens)
# ASSAY METHOD TEXT: NOTCH3 binders on small-molecule microarray, primary screen, biochemical, 635/667 nm fluorescence (AID 1096)
# EXPERIMENTAL CONDITIONS: NOTCH3 binding, 635 nm fluorescence, higher = more signal
Measured composite z-score accompanies every entry in the list below.
I only need the number, thanks.

MOLECULE	RECORDED ENDPOINT	RECORDED RESULT
O=C1OCC=C[C@H]2OC34C=CCN(Cn5nnc6ccccc65)C(=O)[C@H]3N(CCCO)C(=O)[C@@H]4[C@@H]12 (stereo partly specified)	composite z-score	-0.579
COCCOC(=O)N1C(=O)[C@@]2(c3cc(C#CC4=CCCCC4)ccc31)[C@H](c1ccc(OCCO)cc1)N1[C@H](c3ccccc3)[C@H](c3ccccc3)OC(=O)[C@H]1[C@@H]2C(=O)N1CCN(c2ncccn2)CC1	composite z-score	1.1
C[C@@H]1NC(=O)[C@@]23C(=O)N[C@@H](Cc4ccccc4)C2[C@H](C)[C@@]2(C)O[C@H]2C3/C=C/C/C=C\CNC(=O)[C@@H]2CCCN2C1=O (stereo partly specified)	composite z-score	-0.526
COC(=O)[C@@]1(Cc2ccc(OC)cc2)[C@H]2c3cc(C(=O)N(C)C)n(Cc4ccc(Cl)c(C(F)(F)F)c4)c3C[C@H]2CN1C(=O)c1ccccc1	composite z-score	1.02
COCCOC(=O)N1C(=O)[C@@]2(c3cc(C#Cc4ccc(OC)cc4)ccc31)[C@H](c1ccccc1OCCO)N1[C@H](c3ccccc3)[C@H](c3ccccc3)OC(=O)[C@H]1[C@@H]2C(=O)N1CCCCCCC1	composite z-score	0.841

The molecule listed as "COC(=O)Cn1c(C(=O)N(C)C)cc2c1C[C@H]1CN(C(=O)c3ccccc3)[C@@](Cc3ccc(F)cc3)(C(=O)OC)[C@@H]21" shows composite z-score equal to 0.104

###

# Tested on: Plasmodium falciparum Sir2 (PF13_0152, Sir2A)
# ASSAY METHOD TEXT: pfSir2 binders on small-molecule microarrays, primary screen, biochemical, small-molecule microarray, 635 nm fluorescence (AID 1098);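 further: score merges spot fluorescence intensity with its signal-to-noise ratio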
# EXPERIMENTAL CONDITIONS: small-molecule microarray binding, fluorescence 635 nm; higher = more signal
RECORDED ENDPOINT: composite z-score
I only need the number, thanks.

// known answers, use as guide
In [3]: df
Out[3]:
                                   compound  recorded_result
0  CN(C)CCCNC(=O)[C@@]1(c2ccc([N+](=O)[O-])cc2)CC(=O)N(CC23CC4CC(CC(C4)C2)C3)[C@@H]1c1ccc(CO)cc1I             1.59
1  CCOC(=O)C[C@H]1[C@H](OC(=O)c2cc3ccccc3oc2=O)[C@@H](NC(=O)c2ccc(-c3ccccc3)cc2)c2cc(OCCCO)ccc2N1C(=O)c1ccc2ccccc2n1            0.853
2  CN(C)C(=O)[C@@]1(CCS(=O)(=O)c2ccccc2)N=C(c2ccc(OCCCO)cc2)O[C@H]1c1ccccc1             1.32
3  CCOC(=O)C1=CC[C@@H](c2ccccc2C(F)(F)F)N(S(=O)(=O)c2ccc(C)cc2)[C@H]1c1ccc(C#N)cc1            0.668
4  CCOC(=O)C[C@H]1[C@H](OC(=O)c2cc3ccccc3oc2=O)[C@@H](NC(=O)Cc2ccc(OC)cc2)c2cc(OCCCO)ccc2N1C(=O)c1ccc2ccccc2n1            0.195

Kindly note: Plasmodium falciparum Sir2 (PF13_0152, Sir2A), "CCCC[C@@H]1C[C@H]1[C@@H](NC(=O)c1ccccc1)c1ccc(C(F)(F)F)cc1" , composite z-score value reported: -0.829

Kindly note: Plasmodium falciparum Sir2 (PF13_0152, Sir2A), O=C1C2C=CC(C(O)c3ccc(F)cc3)N(n3cnnc3)C2C(=O)N1Cc1ccccc1 (stereo unspecified) , composite z-score value reported: -0.284

Kindly note: Plasmodium falciparum Sir2 (PF13_0152, Sir2A), "COc1cccc(/C=C/C=O)c1" , composite z-score value reported: -0.663

###

# ASSAY METHOD TEXT: COS7 lysate on small-molecule microarray, probe aHis, 635 nm (AID 1123);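 further: z-score combines 667nm fluorescence intensity with signal-to-noise per printed compound spot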
# EXPERIMENTAL CONDITIONS: COS7 cell lysate, fluorescence, higher = more signal
1 means recorded composite z-score is 0.6 or above; -1 means it is below 0.6.

In [3]: df
Out[3]:
                                   compound  label
0  C=C(COC)C(=O)CC[C@@H](OC(=O)c1cccnc1)c1ccc(OCCO)cc1      1
1  [N-]=[N+]=NCc1ccccc1C[C@@]1(C(=O)N2CCOCC2)N=C(c2ccc(OCCCO)cc2)O[C@@H]1c1ccccc1      1
2  O=C(NCC(F)(F)F)[C@@H]1c2ccccc2C(=O)N(Cc2ccc(OC(F)(F)F)cc2)[C@H]1c1ccc(CO)cc1      1
3  CC(C)Cc1ccc(CN2CC[C@@H](NC(=O)Nc3ccccc3)C2)cc1     -1
4  [N-]=[N+]=NCc1ccccc1C[C@@]1(C(=O)NCc2ccccc2)N=C(c2ccc(OCCCO)cc2)O[C@@H]1c1ccccc1N=[N+]=[N-]     -1
5  COC(=O)[C@@]1(Cc2ccc(F)cc2)[C@H]2c3cc(C(=O)N4CCCC4)n(CCc4ccc(O)c(O)c4)c3C[C@H]2CN1C(=O)c1ccccc1      1
6  C=C[C@@H](OC)[C@H](OC(=O)Nc1ccc(SC)cc1)c1ccc(O)c(F)c1      1
7  COC(=O)[C@H](Cc1ccccc1)N1CC(/C=C/C2CC2)=C[C@H]1[C@H](O)Cc1ccccc1      1

// query Hi team, for Cc1cc(C)c(C(O)C2C=CC3C(=O)N(c4ccccc4)C(=O)C3N2Nc2ccc(C(C)C)cc2)c(C)c1 (stereo unspecified) , is the recorded composite z-score at or above 0.6?
// result 1

// query Hi team, for "COc1ccccc1CN1C(=O)c2ccccc2[C@](Cc2ccccc2I)(C(=O)NCC(F)(F)F)[C@@H]1c1ccc(CO)cc1" , is the recorded composite z-score at or above 0.6?
// result 1

// query Hi team, for "CCOC(=O)C[C@H]1[C@H](OC(=O)c2ccccc2-c2ccccc2)[C@@H](NC(=O)C2CCCCC2)c2cc(OCCCO)ccc2N1C(=O)Cc1ccc(OC)cc1" , is the recorded composite z-score at or above 0.6?
// result -1

// query Hi team, for "O=C1C=C(c2ccccc2)C(=O)c2ccc([C@H]3Oc4ccccc4S(=O)(=O)N4CCC[C@@H]34)cc21" , is the recorded composite z-score at or above 0.6?
// result -1

###

# ASSAYED SYSTEM: Carbonic anhydrase 2 (Homo sapiens)
# ASSAY METHOD TEXT: CAII small-molecule binders, profiling panel, biochemical, small-molecule microarray, Alexa647-labelled CAII (AID 1122)
# EXPERIMENTAL CONDITIONS: CAII-A647 binding fluorescence, higher = more signal
Measured composite z-score accompanies every entry in the list below.

// known answers, use as guide
COMPOUND	ASSAYED SYSTEM	composite z-score
CC(=O)NCCCC[C@@H]1NC(=O)[C@@H]2C[C@H](C(=O)NCCCC[N+](C)(C)C)[C@H](c3ccc(O)cc3)N2C1=O	Carbonic anhydrase 2 (Homo sapiens)	0.514
COC(=O)[C@@]1(Cc2ccc(F)cc2)[C@H]2c3cc(C(=O)N(C)C)n(CCc4ccc(O)c(OC)c4)c3C[C@H]2CN1C(=O)c1ccccc1	Carbonic anhydrase 2 (Homo sapiens)	0.25
C=C[C@@H](COC(C)=O)N(C(=O)OC(C)(C)C)S(=O)(=O)c1ccc(Br)cc1	Carbonic anhydrase 2 (Homo sapiens)	0.646
C=C(C)c1cc2c(c(CCCCCC)n1)[Si](C(C)C)(C(C)C)OC2	Carbonic anhydrase 2 (Homo sapiens)	-0.484
O=C1OCC=C[C@H]2OC34C=CCN(c5ccc(Cl)cc5)C(=O)[C@H]3N(CCO)C(=O)[C@@H]4[C@@H]12 (stereo not given in full)	Carbonic anhydrase 2 (Homo sapiens)	0.903

The compound listed as "CCOC(=O)c1ccc(NC(=O)O[C@H]2[C@H](OC(=O)Nc3ccc4c(c3)OCO4)[C@H](OC(=O)Nc3ccc4c(c3)OCO4)[C@@H](OC)O[C@@H]2CO)cc1" shows composite z-score equal to 0.49

The compound listed as "COCCOC(=O)N1C(=O)[C@@]2(c3cc(C#CCC(C(=O)OC)C(=O)OC)ccc31)[C@H](C(=O)N1CCc3cc(OC)c(OC)cc3C1)[C@H]1C(=O)O[C@H](c3ccccc3)[C@H](c3ccccc3)N1[C@@H]2c1ccc(OCCO)cc1" shows composite z-score equal to 0.357

The compound listed as C=CCC(OC(C)=O)[C@@H]1[C@@H](N(Cc2cccc3ccccc23)C(=O)c2cccc3ccccc23)c2cc(OCCCO)ccc2N1C(=O)c1ccc(-c2ccccc2)cc1 (stereo not given in full) shows composite z-score equal to 0.115

The compound listed as "C=C(C(=O)CC[C@@H](OC(C)=O)c1ccc(CO)o1)C(C)C" shows composite z-score equal to 0.846

The compound listed as CC1CC/C=C\[C@H]2OC34C=CCN(C(C)C)C(=O)[C@H]3N(CCCCCCO)C(=O)[C@@H]4C2C(=O)O1 (stereo not given in full) shows composite z-score equal to 0.889

The compound listed as "C=CC[C@@]1(C(=O)N2CCOCC2)N=C(c2ccc(OCCCO)cc2)O[C@@H]1c1ccccc1CN=[N+]=[N-]" shows composite z-score equal to 0.527

The compound listed as CN1C(=O)C2C=CC(C(O)c3ccccn3)N(N(c3ccccc3)c3ccccc3)C2C1=O (stereo not given) shows composite z-score equal to 0.822

The compound listed as "COCCOC(=O)N1C(=O)[C@@]2(c3cc(C#CC4(O)CCCCCC4)ccc31)[C@H](c1ccc(O)cc1)N1[C@H](c3ccccc3)[C@H](c3ccccc3)OC(=O)[C@H]1[C@@H]2C(=O)NC[C@H](O)c1ccccc1" shows composite z-score equal to 0.522

The compound listed as "CC1=C([C@H](O)CCc2ccccc2)[C@H](CO)[C@@H]2C(=O)N(C)C(=O)[C@@H]2C1" shows composite z-score equal to 0.125

The compound listed as "CCOC(=O)C1=CC[C@@H](c2cccc(Cl)c2)N(S(=O)(=O)c2ccc(C)cc2)C1" shows composite z-score equal to 0.685

From: PubChem BioAssay
